These data points were gathered from BindingDB's records for doi:10.1021/jm030424e.

Measured EC50, listed per entry for reference.
- Experiment: Inhibition HCV RNA replication

- Smiles Text: "C[C@@]1(O)[C@H](O)[C@@H](CO)O[C@H]1n1cnc2cnc(N)nc21"
  EC50: "> 50 µM"

Using the record for `C[C@]1(O)[C@H](O)[C@@H](CO)O[C@H]1n1cnc2c(N)ncnc21` , report its EC50. > 50 µM

Using the record for `C[C@@]1(O)[C@H](O)[C@@H](CO)O[C@H]1n1cnc2c(N)ncnc21` , report its EC50. 0.3 µM

Using the record for `Nc1nc2c(ncn2[C@@H]2O[C@H](CO)C[C@H]2O)c(=O)[nH]1` , report its EC50. 50 µM

Using the record for `C[C@@]1(O)[C@@H](CO)O[C@@H](n2cnc3c(N)ncnc32)[C@@H]1O` , report its EC50. > 50 µM

Using the record for `CO[C@@H]1[C@H](O)[C@@H](CO)O[C@H]1n1cnc2c(N)ncnc21` , report its EC50. > 50 µM

Using the record for `CC[C@@]1(O)[C@H](O)[C@@H](CO)O[C@H]1n1cnc2c(N)ncnc21` , report its EC50. > 50 µM

Using the record for `C[C@@]1(O)[C@H](O)[C@@H](CO)O[C@H]1n1cnc2c(=O)[nH]cnc21` , report its EC50. > 50 µM
